Molecular target: c-Src SH2;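 also: peptide library displayed on the E. coli surface as eCPX fusions, selected cells deep-sequenced, score is each peptide's frequency after selection divided by its frequency in the input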
Assay: SH2 binding enrichment of the phosphorylated peptide, bacterial display (enrichment ratio); higher = better substrate or ligand; peptides without Tyr show the background
experimental-endpoint: SH2 binding enrichment

Consider the following illustrative entries.
{"primary-sequence": "TDTAAYEERLR [SPTB_Y474_V478L]", "result": 0.504}
{"primary-sequence": "RNNTEYVRDIG [MUSK_Y577_I575T]", "result": 0.745}

[P] MCDSHYLESRF [CLK1_Y56_S61F]
[Q] AHAGEYGAGAL [HBA1_Y25_E28G]
Asked: // compare measured SH2 binding enrichment between P and Q ; output the lower one Please indicate the selected item by its label.
Given back: Q
(Q: 0.403, P: 0.66)

---

Tested on: Fer (mouse)
Assay: phosphorylation enrichment, bacterial display (enrichment ratio); higher = better substrate or ligand; peptides without Tyr show the background
experimental-endpoint: phosphorylation enrichment
Returns: the value as a bare number; no unit string appended.

Consider the following illustrative entries.
{"primary-sequence": "RKRQFYLYKGK [RSPO4_Y112_C107R]", "phosphorylation enrichment": 0.494}
{"primary-sequence": "TGVWDYIHVVD [GALE_Y241_R239W]", "phosphorylation enrichment": 0.493}
{"primary-sequence": "TFEFRYLEDRD [CNOT3_Y746_YF]", "phosphorylation enrichment": 0.606}
{"primary-sequence": "FKPGFYNLKEK [LAMA1_Y490_C485Y_YF]", "phosphorylation enrichment": 0.61}
{"primary-sequence": "VAFLYYKSIGP [ADGRL4_Y302_V300L]", "phosphorylation enrichment": 0.589}
{"primary-sequence": "PFTRNYYVWAV [CYBA_Y87_R90W]", "phosphorylation enrichment": 1.2}
{"primary-sequence": "IRDENYGEGSS [ACO2_Y665_G661R]", "phosphorylation enrichment": 0.588}
{"primary-sequence": "ASKEPYYVHCI [MYO1D_Y585_R588H]", "phosphorylation enrichment": 0.506}

Asked: Please supply the value of reported phosphorylation enrichment for the item EEGRVYVFHLS [ITGAE_Y549_R552H_YF]
Given back: 0.648

Asked: Please supply the value of reported phosphorylation enrichment for the item DKTGEYPVPLT [ACADM_Y73_I78T]
Given back: 0.397

Asked: Please supply the value of reported phosphorylation enrichment for the item LLSVAYQNVVG [YWHAG_Y49_K50Q]
Given back: 0.83

Asked: Please supply the value of reported phosphorylation enrichment for the item DGTVHYVDEKG [IFT140_Y216]
Given back: 0.593

---

Test system: c-Abl (mouse)
Assay: phosphorylation enrichment, bacterial display (enrichment ratio); higher = better substrate or ligand; peptides without Tyr show the background
experimental-endpoint: phosphorylation enrichment
Returns: the value as a bare number; no unit string appended.

Consider the following illustrative entries.
{"primary-sequence": "LKDEDYLKDTV [HAUS3_Y582_I586T]", "experimental-target": "c-Abl (mouse)", "phosphorylation enrichment": 1.37}
{"primary-sequence": "ARLEFCENEKK [IRS1_Y47_Y47C_YF]", "experimental-target": "c-Abl (mouse)", "phosphorylation enrichment": 0.868}

Asked: Lab note: c-Abl (mouse) assay, enter phosphorylation enrichment for IIEDPYFGNDS [ACP1_Y132_YF] here
Given back: 1.04

---

Tested on: c-Abl (mouse)
Test: phosphorylation enrichment, bacterial display (enrichment ratio); higher = better substrate or ligand; peptides without Tyr show the background
The entries below come with measured phosphorylation enrichment values attached.
Returns: the value as a bare number; no unit string appended.

Consider the following illustrative entries.
{"primary-sequence": "TEAEPYYCSLR [NPHS1_Y1138_R1140C]", "result": 1.18}
{"primary-sequence": "MDNQEYKDAYT [BRDT_Y331_K336T]", "result": 0.792}
{"primary-sequence": "KGNMFYENSFA [EGFR_Y113_R108K_YF]", "result": 0.645}
{"primary-sequence": "HRERPYGGGGG [FUS_Y526_R521H]", "result": 0.556}

Asked: Please supply the value of reported phosphorylation enrichment for the item RRGLLYDSDEE [MCM2_Y137]
Given back: 0.59

Asked: Please supply the value of reported phosphorylation enrichment for the item FECKWYIPLTD [BCR_Y756_D752E_YF]
Given back: 0.796

Asked: Please supply the value of reported phosphorylation enrichment for the item MCDSHYLESRF [CLK1_Y56_S61F]
Given back: 0.608

Asked: Please supply the value of reported phosphorylation enrichment for the item TNDRLYLRSLE [MTM1_Y71_Y68D]
Given back: 0.651

Asked: Please supply the value of reported phosphorylation enrichment for the item PAIERYVVVCK [RHO_Y136_L131P]
Given back: 0.928

Asked: Please supply the value of reported phosphorylation enrichment for the item RRGMPYGGLGD [TGM1_Y312_R315L]
Given back: 0.66

Asked: Please supply the value of reported phosphorylation enrichment for the item ALTRSYVREKV [CYP2C8_Y243_I244V]
Given back: 0.617

Asked: Please supply the value of reported phosphorylation enrichment for the item RWHEGYRQTPR [CD44_Y412_K417R]
Given back: 0.65

Asked: Please supply the value of reported phosphorylation enrichment for the item MPQNEYIELHR [NSA2_Y6]
Given back: 0.497
